Attribution: ChEMBL document CHEMBL4706587

biological target: Amine oxidase [flavin-containing] A (Homo sapiens, UniProt P21397); assay: Inhibition of recombinant human MAO-A expressed in baculovirus infected BTI insect cells using p-tyramine as substrate preincubated for 30 mins followed by substrate addition and measured after 1 hr by fluorimetric analysis
Sequence (P21397 whole entry): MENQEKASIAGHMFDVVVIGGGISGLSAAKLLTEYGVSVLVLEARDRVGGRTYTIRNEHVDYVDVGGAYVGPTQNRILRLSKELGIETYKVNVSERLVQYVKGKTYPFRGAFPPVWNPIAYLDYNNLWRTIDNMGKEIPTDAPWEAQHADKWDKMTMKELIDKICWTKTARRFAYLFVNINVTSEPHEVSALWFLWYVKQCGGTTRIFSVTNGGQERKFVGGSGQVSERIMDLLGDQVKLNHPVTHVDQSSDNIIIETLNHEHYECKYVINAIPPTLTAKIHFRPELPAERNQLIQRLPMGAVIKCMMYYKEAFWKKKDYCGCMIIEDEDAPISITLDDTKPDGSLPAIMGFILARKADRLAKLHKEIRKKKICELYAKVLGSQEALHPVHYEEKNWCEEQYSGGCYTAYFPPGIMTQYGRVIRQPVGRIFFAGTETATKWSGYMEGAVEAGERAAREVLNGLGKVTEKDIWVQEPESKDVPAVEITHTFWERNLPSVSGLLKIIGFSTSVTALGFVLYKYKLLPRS

| structure | units_symbol | IC50 |
| --- | --- | --- |
| C#CCN(C)Cc1ccc(OCCCCCN2CCN(c3cccc4c3ccn4S(=O)(=O)c3ccccc3)CC2)cc1 | nM | 1040 |

###

experiment: Cmax in Wistar rat at 3 mg/kg, po measured up to 240 mins; format: ADME, organism-based; design: route oral, dose 3 mg/kg, time <=240; conditions: in vivo

| structure | Cmax |
| --- | --- |
| C#CCN(C)Cc1ccc(OCCCCCN2CCN(c3cccc4c3ccn4S(=O)(=O)c3ccccc3)CC2)cc1 | 72.7 ng/mL |

###

target: Amine oxidase [flavin-containing] B (Homo sapiens); assay: Inhibition of recombinant human MAO-B expressed in baculovirus infected BTI insect cells using p-tyramine as substrate preincubated for 30 mins followed by substrate addition and measured after 1 hr by fluorimetric analysis
Sequence (P27338 whole entry): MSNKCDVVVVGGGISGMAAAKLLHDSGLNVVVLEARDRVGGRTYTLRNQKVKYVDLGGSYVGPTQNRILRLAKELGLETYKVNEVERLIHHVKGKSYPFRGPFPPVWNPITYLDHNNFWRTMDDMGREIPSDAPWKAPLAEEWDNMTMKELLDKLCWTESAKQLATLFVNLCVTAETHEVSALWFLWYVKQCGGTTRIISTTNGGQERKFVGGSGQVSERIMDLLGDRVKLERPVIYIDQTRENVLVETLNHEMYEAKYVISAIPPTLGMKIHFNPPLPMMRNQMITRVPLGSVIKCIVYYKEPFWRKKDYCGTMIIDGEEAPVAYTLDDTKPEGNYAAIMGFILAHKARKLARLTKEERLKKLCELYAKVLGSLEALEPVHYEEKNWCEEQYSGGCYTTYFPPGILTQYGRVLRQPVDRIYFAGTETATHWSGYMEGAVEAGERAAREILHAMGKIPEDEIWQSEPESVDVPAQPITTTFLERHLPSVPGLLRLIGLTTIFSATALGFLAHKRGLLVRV
pIC50: −log10 of the molar value.

| compound | value_modifier | pIC50 |
| --- | --- | --- |
| C#CCNC1CCc2c(OCCCCCN3CCN(c4cccc5c4ccn5S(=O)(=O)c4ccccc4)CC3)cccc21 (centres undefined) | = | 6.79 |
| C#CCNC1CCc2c(OCCCCN3CCN(c4cccc5c4ccn5S(=O)(=O)c4ccccc4)CC3)cccc21 (centres undefined) | < | 6.00 |
| C#CCNC1CCc2c(OCCCCN3CCN(c4cccc5c4ccn5Cc4cccc(Cl)c4)CC3)cccc21 (centres undefined) | = | 6.57 |
| C[C@H](NCc1ccc(OCCCCN2CCN(c3cccc4c3ccn4Cc3cccc(Cl)c3)CC2)cc1)C(N)=O | < | 6.00 |

###

This document collects Ki values reported for 5-hydroxytryptamine receptor 6 (Homo sapiens, UniProt P50406).

| molecule | tested_target | Ki [nM] |
| --- | --- | --- |
| C[C@H](NCc1ccc(OCCCN2CCN(c3cccc4c3ccn4Cc3cccc(Cl)c3)CC2)cc1)C(N)=O | 5-hydroxytryptamine receptor 6 (Homo sapiens, UniProt P50406) | 158 |
| Clc1cccc(Cn2ccc3c(N4CCNCC4)cccc32)c1 | 5-hydroxytryptamine receptor 6 (Homo sapiens, UniProt P50406) | 7 |
| C[C@H](NCc1ccc(OCCCCCN2CCN(c3cccc4c3ccn4S(=O)(=O)c3ccccc3)CC2)cc1)C(N)=O | 5-hydroxytryptamine receptor 6 (Homo sapiens, UniProt P50406) | 65 |
| C#CCNC1CCc2c(OCCCCCCN3CCN(c4cccc5c4ccn5Cc4cccc(Cl)c4)CC3)cccc21 (centres undefined) | 5-hydroxytryptamine receptor 6 (Homo sapiens, UniProt P50406) | 259 |
| C#CCN(C)Cc1ccc(OCCCCN2CCN(c3cccc4c3ccn4S(=O)(=O)c3ccccc3)CC2)cc1 | 5-hydroxytryptamine receptor 6 (Homo sapiens, UniProt P50406) | 54 |
| C#CCNC1CCc2c(OCCCCCN3CCN(c4cccc5c4ccn5Cc4cccc(Cl)c4)CC3)cccc21 (centres undefined) | 5-hydroxytryptamine receptor 6 (Homo sapiens, UniProt P50406) | 223 |
| C#CCN(C)Cc1ccc(OCCCCCN2CCN(c3cccc4c3ccn4Cc3cccc(Cl)c3)CC2)cc1 | 5-hydroxytryptamine receptor 6 (Homo sapiens, UniProt P50406) | 140 |
| C#CCN(C)Cc1ccc(OCCCCN2CCN(c3cccc4c3ccn4Cc3cccc(Cl)c3)CC2)cc1 | 5-hydroxytryptamine receptor 6 (Homo sapiens, UniProt P50406) | 195 |
| C#CCNC1CCc2c(OCCCCN3CCN(c4cccc5c4ccn5S(=O)(=O)c4ccccc4)CC3)cccc21 (centres undefined) | 5-hydroxytryptamine receptor 6 (Homo sapiens, UniProt P50406) | 50 |
